Values were extracted from ChEMBL document CHEMBL1157539.

# Tested on: HepG2
# test: GSK_TCMDC: Percent inhibition of human HepG2 cell line. Test compounds present at 10uM.
# Type: functional
metric name: Inhibition (%)
Value expressed in %; do not type the unit.

Worked examples follow.
CCCc1ccc2c(c1O)CCC(N(CCC)CCC)C2.Cl (stereo not drawn) : 0
CC[C@H]1CN2CC[C@@H]1C[C@H]2[C@H](O)c1ccnc2ccc(OC)cc12 : 0
CC[C@H]1CN2CC[C@H]1C[C@H]2[C@H](O)c1cc(/C=C/c2ccccc2)nc2ccc(OC)cc12 : 16
Cc1[nH]c2ccc(O)cc2c1C1CCN(CC2CCC(NC(=O)/C=C/c3ccc(Cl)c(Cl)c3)CC2)CC1 (stereo not drawn) : 19

Noted for `N#Cc1ccc(N(CC(=O)NCCc2ccc(F)cc2)CC2CC2)c2ccccc12.O=C(O)C(F)(F)F` : its Inhibition reads 28

Noted for Oc1cccc(C2CCCN(Cc3cccc4cc[nH]c34)C2)c1 (stereo not drawn) : its Inhibition reads 16

Noted for `CC[C@H]1CN2CC[C@H]1C[C@@H]2[C@@H](O)c1ccnc2ccccc12` : its Inhibition reads 10

Noted for COc1ccc2[nH]cc(C3=CCN(CC4CC4C(=O)c4ccccc4)CC3)c2n1 (stereo not drawn) : its Inhibition reads 22

Noted for Cc1[nH]c2ccccc2c1C1=CCN(CCCCC2(C)C(=O)Nc3ccccc32)CC1 (stereo not drawn) : its Inhibition reads 8

Noted for Cc1c(C)c2c(c(C)c1O)CC[C@@](C)(C(=O)NC1CCC(CN3CCC(c4c[nH]c5ccccc45)CC3)CC1)O2 (stereo partly drawn) : its Inhibition reads 29

Noted for `CC(=O)Nc1ccc(CN2CCC(N(C)c3cc(NC(=O)c4cccc(F)c4)ccn3)CC2)cc1.O=C(O)C(F)(F)F` : its Inhibition reads 4

Noted for `FC(F)(F)c1ccc(NC(=S)N2CCC(CN3CCC(c4c[nH]c5ccccc45)CC3)CC2)cc1` : its Inhibition reads 35

Noted for `CC[C@H]1CN2CC[C@H]1C[C@H]2[C@H](O)c1cc(-c2ccc(OC(F)(F)F)cc2)nc2ccc(OC)cc12.Cl` : its Inhibition reads 24

Noted for CC(Cc1ccc(OCc2ccccc2)cc1)NCC(O)c1cccc(Cl)c1 (stereo not drawn) : its Inhibition reads 50

Noted for `CC(C)CNCc1cccc(-c2cccc(CN(C(=O)Nc3ccccc3)C3CCN(Cc4ccccc4)CC3)c2)c1.O=C(O)C(F)(F)F` : its Inhibition reads 31

Noted for CC(Cc1ccc(OCCCCOc2ccccc2)cc1)NCCc1ccccc1Cl (stereo not drawn) : its Inhibition reads 100

Noted for CCC(C)CN1CCC(N(C)c2cc(NC(=O)c3cccc(C)c3)ccn2)CC1.O=C(O)C(F)(F)F (stereo not drawn) : its Inhibition reads 1

Noted for `CNCCCN(C)C(=O)Oc1c(Br)c(C)nc(C)c1-c1ccc(Oc2ccc(OC(F)(F)F)cc2)cc1.Cl` : its Inhibition reads 17
